Data provenance is patent US20060121449A1.

tested on: polyoma virus transformed BHK21/c13 cells, line S100T1; assay: Collocation inhibition test: clonal growth in sparsely and densely seeded areas of a cell density gradient of S100T1 cells in soft agar (Exp 13, 17, 19-26); details: Experiment 22; H: area with high cell density; Medium concentration;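 further: grades from − to +++ rise with clonal growth while − and +− count as negative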
Property: Clonal growth

In [3]: df
Out[3]:
                                   compound       property  result
0  CCCCC1(O)C(=O)N(c2ccccc2)N(c2ccc(O)cc2)C1=O (stereo not shown)  Clonal growth     (+)
1  CCCCC(C(=O)Nc1ccccc1)C(=O)Nc1ccc(O)cc1 (stereo not shown)  Clonal growth      ++
2  O=C1N(c2ccccc2)N(c2ccccc2)C(=O)C1(O)CC[S+]([O-])c1ccccc1 (stereo not shown)  Clonal growth      ++
3  CCCCC1(O)C(=O)N(c2ccccc2)N(c2ccc(OC)cc2)C1=O (stereo not shown)  Clonal growth      ++

---

test system: polyoma virus transformed BHK21/c13 cells, line S100T1; test: Collocation inhibition test: clonal growth in sparsely and densely seeded areas of a cell density gradient of S100T1 cells in soft agar (Exp 13, 17, 19-26); details: Experiment 23; A (area with high cell density); High concentration; 48 hours;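 further: grades from − to +++ rise with clonal growth while − and +− count as negative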;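 further: soft agar cultures in 24-well plates with a cell density gradient in the top layer, compounds applied from DMSO stocks, clonal growth scored in sparse versus dense areas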
Property: Clonal growth

>>> print(df.to_string())
                                   compound  result
0  CCCCC(=O)C(=O)Nc1ccccc1 [#3, 2-oxo-hexanoic acid phenylamide]      ++
1  Oc1ccc(N=Nc2ccccc2)cc1 [#1, p-hydroxy-azobenzene]    +(+)
2  CCCCC(O)(C(=O)Nc1ccccc1)C(=O)Nc1ccc(O)cc1 (centres unmarked) [#2]      ++
3  CCCCC1(O)C(=O)N(c2ccccc2)N(c2ccc(O)cc2)C1=O (centres unmarked) [4-OH-OPB]     (+)

Now look at this entry.
API: value(readout= Clonal growth, system= polyoma virus transformed BHK21/c13 cells, line S100T1, query= CN(Cc1cnc2nc(N)nc(N)c2n1)c1ccc(C(=O)N[C@@H](CCC(=O)O)C(=O)O)cc1 [methotrexate, Methotrexate, reference compound] )
+(+)

---

test system: polyoma virus transformed BHK21/c13 cells, clone S100T1; assay: Clonal test: clonal growth of S100T1 cells in soft agar (Exp 2, 4, 6, 15, 16); format: cell-based, hamster; conditions: Exp 15, 5th day; High conc., μM in wells: No 1 (4-OH—OPB) 20, 2 (Colchicine) 0.1, 3 (Diphenylhydantoin) 100, 4 (Podophyllotoxin) 0.3, 5 (Piroxicam) 50, 6 (Diclofenak) 100; ” = as line above
Property: Significance

In [3]: df
Out[3]:
                                   compound  result
0  O=C1N(c2ccccc2)N(c2ccccc2)C(=O)C1(O)CC[S+]([O-])c1ccccc1 (centres unmarked)       ”
1  Oc1ccc(N=Nc2ccccc2)cc1 [#1, p-hydroxy-azobenzene]     yes
2  CCCCC(O)(C(=O)Nc1ccccc1)C(=O)Nc1ccc(O)cc1 (centres unmarked)      no
3  CCCCC(=O)C(=O)Nc1ccccc1 [#3, 2-oxo-hexanoic acid phenylamide]       ”
